Origin of measurements: PubChem BioAssay (Tox21)

Target: Estrogen receptor (Homo sapiens) (UniProt P03372)
Sequence (P03372 whole entry, looked up): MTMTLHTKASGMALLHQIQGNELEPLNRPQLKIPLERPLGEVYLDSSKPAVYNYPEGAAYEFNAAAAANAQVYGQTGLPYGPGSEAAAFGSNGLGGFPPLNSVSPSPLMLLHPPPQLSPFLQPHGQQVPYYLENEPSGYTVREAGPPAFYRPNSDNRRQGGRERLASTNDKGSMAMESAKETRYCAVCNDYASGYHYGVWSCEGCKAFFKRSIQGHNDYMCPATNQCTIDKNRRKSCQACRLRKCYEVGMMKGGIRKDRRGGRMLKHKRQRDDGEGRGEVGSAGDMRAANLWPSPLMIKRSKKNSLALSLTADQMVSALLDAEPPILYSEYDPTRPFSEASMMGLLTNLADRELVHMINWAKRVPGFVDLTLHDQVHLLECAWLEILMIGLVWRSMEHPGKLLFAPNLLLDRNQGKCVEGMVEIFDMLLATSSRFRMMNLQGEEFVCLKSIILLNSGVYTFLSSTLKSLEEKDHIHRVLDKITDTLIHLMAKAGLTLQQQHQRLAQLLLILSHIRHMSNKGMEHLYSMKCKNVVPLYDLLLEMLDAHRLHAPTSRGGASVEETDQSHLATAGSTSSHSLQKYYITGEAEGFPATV
Test: qHTS assay to identify small molecule agonists of the estrogen receptor alpha (ER-alpha) signaling pathway using the BG1 cell line (AID 743079); further: nearly all actives have a fitted effect of over 20% in size
Settings: BG1Luc4E2 cells, ERE-luciferase agonist, 22 h; series mostly up to 70.3 µM
Results filed as inconclusive are left out. Activity calls are given as the source filed them. The call rests on the fitted dose curve; in most records, active means well fitted activation curve with a large enough effect in the repeat runs; inconclusive means weak or mixed curves, or effect the other way; inactive means no such curve, though single readings can be large or run the other way.
Outcome (select one): True for active, False for inactive

Record excerpt, results attached:
Clc1cc(C(Cl)(Cl)Cl)cnc1Cl :: False
O=C(O)COc1ccc(Cl)cc1 :: False
Clc1cccc(SC2CCNCC2)n1 :: False
Cc1cc(=O)[nH]o1 :: False
COP(=S)(OC)Oc1ccc([N+](=O)[O-])cc1Cl :: False

Field: next molecule
What is the recorded call for this molecule in the test? CCOP(=S)(Oc1ccc([N+](=O)[O-])cc1)c1ccccc1 (stereo unspecified)
True

---

Assay: qHTS assay to identify small molecule agonists of the RXR signaling pathway - cell viability counter screen (AID 1159529); further: nearly all actives have a fitted effect of over 50% in size
Details: RXR-alpha-bla HEK293T viability, CellTiter-Glo, 16 h; series mostly up to 76.8 µM
Inconclusive results are not listed. The source made the active and inactive calls. The call rests on the fitted dose curve; in most records, active means well fitted cell-killing curve with a large enough effect in the repeat runs; inconclusive means weak or mixed curves, or effect the other way; inactive means no such curve, though single readings can be large or run the other way.
Can you answer with just one of these options? 1.0 = active, 0.0 = inactive

Some solved cases for reference:
COC(N)=O :: 0.0
CNC(C)Cc1ccccc1OC (stereo not drawn) :: 0.0

Recorded test outcome, item CCN(C)N=O
0.0

Record request — test call for CCCCN=C=O
0.0

Called result for CC[C@H]1C[C@H]2[C@@H]3CCC4=CC(=O)CC[C@@H]4[C@H]3CC[C@]2(C)[C@H]1O
0.0

Entry CCBr : call = ?
0.0

Dear colleague, could you share the recorded outcome for O=C(NCc1cccnc1)Nc1ccc([N+](=O)[O-])cc1 when you have a moment?
0.0

Hi, sorry to bother you, what did the test record for CC(O)(CS(=O)(=O)c1ccc(F)cc1)C(=O)Nc1ccc(C#N)c(C(F)(F)F)c1 (stereo not drawn) ?
1.0

What classification did CC(=O)[C@H]1CC[C@H]2[C@@H]3CC[C@H]4C[C@](C)(O)CC[C@]4(C)[C@H]3CC[C@]12C end up with in this test?
0.0

Check the results log: what was the call for C=COC(C)=O ?
0.0

Could you check what this test reported for O=C(NC(=O)c1c(F)cccc1F)Nc1ccc(OC(F)(F)C(F)OC(F)(F)F)c(Cl)c1 (stereo not drawn) ?
0.0

// outcome(item) with item = Nc1ccc(N=Nc2ccc(-c3ccc(N=Nc4c(S(=O)(=O)O)cc5cc(S(=O)(=O)O)c(N=Nc6ccccc6)c(O)c5c4N)cc3)cc2)c(N)c1
0.0

---

Target: Nuclear receptor subfamily 1 group I member 3 (Homo sapiens) (UniProt Q14994)
Sequence (Q14994 whole entry, looked up): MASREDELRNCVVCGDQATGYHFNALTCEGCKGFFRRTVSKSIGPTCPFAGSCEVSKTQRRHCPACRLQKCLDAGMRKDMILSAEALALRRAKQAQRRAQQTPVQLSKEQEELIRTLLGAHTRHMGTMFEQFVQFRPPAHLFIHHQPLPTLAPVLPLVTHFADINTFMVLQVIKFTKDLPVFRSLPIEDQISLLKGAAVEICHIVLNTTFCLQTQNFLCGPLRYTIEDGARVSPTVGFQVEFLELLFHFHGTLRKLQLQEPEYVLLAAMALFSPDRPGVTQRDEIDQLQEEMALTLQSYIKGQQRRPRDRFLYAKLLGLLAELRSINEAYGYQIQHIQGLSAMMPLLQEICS
Assay: qHTS assay to identify small molecule antagonists of the constitutive androstane receptor (CAR) signaling pathway (AID 1224838);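 further: HepG2 cells stably expressing hCAR with CYP2B6 luciferase reporter stimulated by CITCO; nearly all actives have a fitted effect of over 40% in size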
Conditions: HepG2-CYP2B6-hCAR luciferase, CITCO-stimulated, 24 h; series mostly up to 92.4 µM
Results filed as inconclusive are left out. Calls of active or inactive are those of the source. The call rests on the fitted dose curve; in most records, active means well fitted inhibition curve with a large enough effect in the repeat runs; inconclusive means weak or mixed curves, or effect the other way; inactive means no such curve, though single readings can be large or run the other way.
The reply should name one outcome from true (1) = active, false (0) = inactive

COP(=S)(Oc1cc(Cl)c(Br)cc1Cl)c1ccccc1 (stereo not drawn) :: false (0)
O=C1NCN(c2ccccc2)C12CCN(CCCOc1ccc(F)cc1)CC2 :: true (1)
O=C(NCc1cccnc1)Nc1ccc([N+](=O)[O-])cc1 :: false (0)

Any idea what this test logged for CC(=O)CCC(C)=O ?
false (0)

Check the results log: what was the call for COc1ccc(-c2ccccc2)cc1NNC(=O)OC(C)C ?
false (0)

Hey, what did the test say about NNC(=O)c1cccnc1 ?
false (0)

Could you please tell me the result logged for CCCCN(N=O)C(=N)N[N+](=O)[O-] in this assay?
true (1)

Which outcome was entered for the molecule COC(=O)C(Cl)C(=O)OC in this test?
false (0)

---

Test: qHTS assay to identify small molecule antagonists of the thyroid receptor (TR) signaling pathway - cell viability counter screen (AID 743064); further: nearly all actives have a fitted effect of over 50% in size
Conditions: GH3.TRE-Luc viability, CellTiter-Fluor, 24 h; series mostly up to 70.3 µM
Records with an inconclusive call do not appear. Calls of active or inactive are those of the source. Calls come from the whole dose curve; as a rule, active = well fitted cell-killing curve with a large enough effect in the repeat runs; inconclusive = weak or mixed curves, or effect the other way; inactive = no such curve, though single readings can be large or run the other way.
Field 'call' accepts yes for active, no for inactive

Clc1ccc(C2(Cn3cncn3)CC(Br)CO2)c(Cl)c1 (stereo not given) :: no
COC1=CC(=O)O[C@@H](CCc2ccccc2)C1 :: no
CCC(COC(=O)c1cc(OC)c(OC)c(OC)c1)(c1ccccc1)N(C)C (stereo not given) :: no
O=C(Nc1ccccc1)Nc1cnns1 :: no
Cc1c(F)c(F)c(COC(=O)C2C(/C=C(\Cl)C(F)(F)F)C2(C)C)c(F)c1F (stereo not given) :: no
C=CC[C@]1(O)CC[C@H]2[C@@H]3CCC4=CC(=O)CCC4=C3C=C[C@@]21C :: no
CCOP(=S)(OCC)Oc1nc(Cl)c(Cl)cc1Cl :: no
CCCN(CCCl)c1c([N+](=O)[O-])cc(C(F)(F)F)cc1[N+](=O)[O-] :: no

Below: the item to evaluate.
State the result this test recorded for C[C@H]1CNCCc2ccc(Cl)cc21 .
no

---

Assay: qHTS assay to identify small molecule agonists of the TGF-beta/Smad signaling pathway - cell viability counter screen (AID 1346829); further: top concentration of the series differs between compounds; nearly all actives have a fitted effect of over 45% in size
Details: SBE-bla HEK293T viability, CellTiter-Glo luminescence, 5 h; series mostly up to 76.8 µM
Records with an inconclusive call do not appear. The source made the active and inactive calls. Calls come from the whole dose curve; as a rule, active = well fitted cell-killing curve with a large enough effect in the repeat runs; inconclusive = weak or mixed curves, or effect the other way; inactive = flat fitted curve, though single readings scatter.
VALUE_KIND: outcome

The examples below pair each entry with its known result.
Cc1ccccc1CCl :: inactive
[CH3][Sn]([CH3])([Cl])[Cl] :: inactive
Clc1ccc(C(OCCN2CCCCC2)c2ccccc2)cc1 (configuration not stated) :: inactive
CNP(=O)(OC)Oc1ccc(C(C)(C)C)cc1Cl (configuration not stated) :: inactive
C=CC(=O)OC(C)(C)C :: inactive
C=CC(=O)OCC(C)C :: inactive

Next:
Fill in outcome for record O=C1NCN(c2ccccc2)C12CCN(CCCOc1ccc(F)cc1)CC2
inactive

---

Assay: qHTS assay to identify small molecule antagonists of the retinoid acid receptor (RAR) signaling pathway - cell viability counter screen (AID 1159551); further: nearly all actives have a fitted effect of over 35% in size
Conditions: C3RL4 cells viability, ATP luminescence (CellTiter-Glo), 6 h; series mostly up to 92.4 µM
Results filed as inconclusive are left out. Calls of active or inactive are those of the source. The call rests on the fitted dose curve; in most records, active means well fitted cell-killing curve with a large enough effect in the repeat runs; inconclusive means weak or mixed curves, or effect the other way; inactive means flat fitted curve, though single readings scatter.
Please answer using one outcome listed in active, inactive

// below: answered molecules
CCOP(=S)(OCC)Oc1cc(Cl)c(Br)cc1Cl :: inactive
O=C(CBr)c1ccccc1 :: inactive
CCCN(CCC)c1c([N+](=O)[O-])cc(S(C)(=O)=O)cc1[N+](=O)[O-] :: inactive
CC(C)N(C(=O)COc1nnc(C(F)(F)F)s1)c1ccc(F)cc1 :: inactive
O=C(OC1CCCCC1)c1ccccc1C(=O)OC1CCCCC1 :: inactive
CC1(C)[C@H](C=C(Cl)Cl)[C@@H]1C(=O)O[C@@H](C#N)c1cccc(Oc2ccccc2)c1 :: inactive

What is the recorded call for this molecule in the test? COCC(C)N(C(=O)CCl)c1c(C)csc1C (stereo unspecified)
inactive

# lookup: test call for Oc1ccc(Cl)c(Cl)c1Cl
inactive

What did this assay record as the result for NCCCNCCCN ?
inactive

Just curious, what result did O=C(O)c1ccccc1C(=O)Nc1cccc2ccccc12 get here?
inactive

Answer briefly: the call reported for O=S(=O)(Cl)c1ccccc1 in this assay.
inactive

Returns: the outcome recorded for O=C(O)CC(Cl)C(=O)O (stereo unspecified) in this assay.
inactive

Name the outcome recorded for CC(C)=CCOc1c2occc2cc2ccc(=O)oc12 in the assay.
inactive

Can you look up the reported call for COC(=O)C(Cl)C(=O)OC for me?
inactive

Give the logged outcome of this assay for the following molecule: COc1nn(C(=O)NS(=O)(=O)c2ccccc2OC(F)(F)F)c(=O)n1C
inactive

State the result this test recorded for Nc1ccc(N=Nc2ccc(-c3ccc(N=Nc4c(S(=O)(=O)O)cc5cc(S(=O)(=O)O)c(N=Nc6ccccc6)c(O)c5c4N)cc3)cc2)c(N)c1 .
active

Test call for this molecule, please: O=C(CBr)Nc1ccc(Cl)cc1C(=O)c1ccccc1F
inactive

# outcome recorded in this test, key = CC(C)O.CC(C)O.OCCN(CCO)CCO.OCCN(CCO)CCO.[Ti]
inactive

Hi team, can someone confirm the assay call for C=CCOC(C)=O ?
inactive

Answer briefly: the call reported for Clc1cccc(SC2CCNCC2)n1 in this assay.
inactive

Check the results log: what was the call for O=Cc1ccc(Cl)cc1Cl ?
inactive

---

Target: Cytochrome P450 2C19 (Homo sapiens)
Experiment: Cytochrome P450 Family 2 Subfamily C Member 19 (CYP2C19) small molecule antagonists: luciferase reporter qHTS assay (AID 1671197); further: nearly all actives have a fitted effect of over 65% in size
Settings: P450-Glo CYP2C19 enzyme, luciferin luminescence, 1 h; series mostly up to 115 µM
Results filed as inconclusive are left out. Activity calls are given as the source filed them. The call rests on the fitted dose curve; in most records, active means well fitted inhibition curve with a large enough effect in the repeat runs; inconclusive means weak or mixed curves; inactive means no such curve, though single readings can be large or run the other way.
A correct response names exactly one class from yes for active, no for inactive

CCCCC(CC)COP(=O)(Oc1ccccc1)Oc1ccccc1 (configuration not stated) :: yes
CC(C)=CCOc1c2occc2cc2ccc(=O)oc12 :: yes
CC1(C)CCC(Cc2ccc(Cl)cc2)C1(O)Cn1cncn1 (configuration not stated) :: yes
O=C(O)COc1ccc(Cl)cc1 :: no
II :: yes

Could you now look at the following compound, please?
Call for entry OCCCBr :
yes
